The measurements presented in this section are drawn from patent US20240132580A1.

// values below are reported koff
Molecular target: T1, Biotinylated murine VEGF-164 (Acro Biosystem) (mouse, UniProt Q00731-2 27-190, biotinylated (site not stated))
T1 construct: Bought protein; also called Mouse VEGF164; mouse VEGFA
T1 sequence (looked up): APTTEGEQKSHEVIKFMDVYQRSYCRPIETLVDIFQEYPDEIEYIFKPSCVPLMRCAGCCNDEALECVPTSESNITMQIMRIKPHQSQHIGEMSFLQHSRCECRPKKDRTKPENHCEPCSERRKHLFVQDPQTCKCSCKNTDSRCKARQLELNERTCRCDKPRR
Assay: BLI, biotinylated antigen on streptavidin tips, 1:1 global fit
Express your answer in s⁻¹, writing the number without its unit.

1) 21A8.1 (VHH, Autonomous humanised VH domain (DotBody), from the 16C2.1-based library with heat challenge; E. coli, ATG codon 5' (possible initiator Met), 3' hexahistidine tag; also called DotBody 21A8.1) VHH: EVQLVESGGGLVQPGGSLRLSCAISGFSVDATDIDWVRQAPGKGLEWVARIFSPSGFTDYADSVKGRFTISADTSKNTVYLQMNSLRAEDTAVYYCDRPEFYAYNIFHDPRTVPAGNYRGQGTLVTVSS
0.00292

Prompt: Can you share its koff? I mean this binder: 20A3.1 (VHH, Autonomous humanised VH domain (DotBody), from the 16A2.1-based library with heat challenge; E. coli, ATG codon 5' (possible initiator Met), 3' hexahistidine tag; also called DotBody 20A3.1) VHH: EVQLVESGGGLVQPGGSLRLSCAISGFSLADTDIDWVRQAPGKGLEWVARIFSSSGSTYYADSVKGRFTISADTSKNTVYLQMNSLRAEDTAVYYCDRADSVGYNVIFPGSTYSRSGYRGQGTLVTVSS
Response: 0.000889
